Species: Homo sapiens
TEST_METHOD_NOTES: To identify inhibition of the IFN signalling (Jak-Stat) pathway via expression of an eGFP reporter gene under the control of an IFN-stimulated response element (ISRE) containing MxA promoter.
Type: functional
Design: scale not given: direction of the effect not stated beside the values
REPORTED_CONDITIONS: 30 µM
EXPERIMENTAL_READOUT: Percent Effect (%)
The reply should be a number in %, with the unit left off.

// below: answered compounds
Cc1noc(C)c1C(=O)NCC(c1ccc(F)cc1)N(C)C (configuration not stated); 16.5
O=C(NC[C@]12COC[C@H]1CN(Cc1nccs1)C2)N1CCCC1; -4.41
Cc1nn(CC(C)C)c(N(C)C)c1CNCc1cc2ccccc2[nH]1; 2.34
Cc1cccc(N2CCN(C(=O)CN3CCN(CCO)CC3)CC2)c1; 10.3
CC(C)c1nc(CCNC(=O)NCc2ccnc(N(C)C)c2)cs1; 12.5
CC(C)c1nc(C2CCCN2C(=O)c2nccnc2N)no1 (configuration not stated); 12.1
CSc1ccc(NS(=O)(=O)c2cnn(C)c2)cn1; -19.3
CC(C)(C)C(=O)N1CCC2(COCc3cnc(N4CCOCC4)nc32)C1 (configuration not stated); -1.15

Problem: Which Percent Effect reading was recorded for the compound CN(Cc1nccn1CC(F)(F)F)C(=O)c1ccc(F)c(F)c1 ?
Solution: 4.07

Problem: Which Percent Effect reading was recorded for the compound CNC(=O)CCc1cc(C)nc(C2CCCN2)n1 (configuration not stated) ?
Solution: 13.2

Problem: Which Percent Effect reading was recorded for the compound Cc1cnn(CC2CN(c3ncnc4ccsc34)CCO2)c1 (configuration not stated) ?
Solution: 75.7

Problem: Which Percent Effect reading was recorded for the compound COCCN1CCC(NCc2cccc(F)c2)C1 (configuration not stated) ?
Solution: 32.2

###

ASSAY_TARGET: Ubiquitin-activating enzyme e1, putative (Leishmania donovani (strain BPK282A1))
TEST_METHOD_NOTES: Leishmania donovani Ubiquitin Activating Enzyme (LdE1)
Assay type: functional
Parameters: scale not given: direction of the effect not stated beside the values
REPORTED_CONDITIONS: 30 µM
Entries with a potency or affinity are not part of this list.
Entries and their Percent Effect
The reply should be a number in %, with the unit left off.

// below: answered compounds
Cn1cc(CN2CC[C@@H]3[C@@H](CCC(=O)N3CCc3c[nH]cn3)C2)cn1; 5.48
CSCC(C)(O)CNC(=O)c1ccc(Br)cc1C (stereo unspecified); 0
CN(Cc1nc(N)c2ccccc2n1)CC1CCCN1c1cccnn1 (stereo unspecified); 5.2
O=C(c1ccc(=O)[nH]n1)N1CC(c2nc(Cc3ccccc3)no2)C1; 8.22
CNC(=O)C(NC(=O)c1nccn2ccnc12)c1ccc(F)c(F)c1 (stereo unspecified); 13.5
CCc1csc(C2CCCN(C(=O)c3c[nH]c(C)n3)C2)n1 (stereo unspecified); 7.79

Then this compound:
Problem: Tell me reported Percent Effect for O=C(NCc1cc[nH]n1)NC1CCCN(c2ncccn2)C1 (stereo unspecified) , tested with Ubiquitin-activating enzyme e1, putative (Leishmania donovani (strain BPK282A1)).
Solution: 10.5

###

ASSAY_TARGET: Tyrosyl-tRNA synthetase, putative (Trypanosoma cruzi (strain CL Brener))
Sequence (whole entry): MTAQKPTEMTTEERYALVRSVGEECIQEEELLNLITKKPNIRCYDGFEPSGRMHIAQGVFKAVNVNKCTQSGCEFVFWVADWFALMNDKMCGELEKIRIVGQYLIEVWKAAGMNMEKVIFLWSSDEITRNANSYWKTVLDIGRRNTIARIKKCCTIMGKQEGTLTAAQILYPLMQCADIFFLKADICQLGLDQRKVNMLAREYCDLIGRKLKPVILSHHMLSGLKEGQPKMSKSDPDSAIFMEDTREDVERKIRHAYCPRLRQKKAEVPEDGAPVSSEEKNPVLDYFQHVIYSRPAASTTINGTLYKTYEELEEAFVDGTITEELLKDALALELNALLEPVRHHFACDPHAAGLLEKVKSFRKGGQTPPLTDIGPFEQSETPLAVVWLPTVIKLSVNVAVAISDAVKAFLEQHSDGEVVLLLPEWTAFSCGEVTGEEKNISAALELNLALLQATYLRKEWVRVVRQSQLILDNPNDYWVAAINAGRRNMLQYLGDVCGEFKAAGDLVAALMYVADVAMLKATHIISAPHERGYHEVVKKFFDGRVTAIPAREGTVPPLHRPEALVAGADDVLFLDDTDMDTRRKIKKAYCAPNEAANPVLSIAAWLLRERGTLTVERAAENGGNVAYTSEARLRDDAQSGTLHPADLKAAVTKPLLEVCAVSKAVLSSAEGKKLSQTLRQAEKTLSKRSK
TEST_METHOD_NOTES: Trypanosoma cruzi tyrosyl tRNA synthetase (TcYRS) _High Tyrosine SOP; also: in the data most compounds retested in dose-response had high values
Format: functional
Parameters: scale not given: direction of the effect not stated beside the values
REPORTED_CONDITIONS: 30 µM
EXPERIMENTAL_READOUT: Percent Effect
Answers without a unit are incomplete; give the number and then its unit.

// below: answered compounds
COc1ccccc1CC1CCCN(CC(N)=O)C1 (stereo not given); 2.86%
CCn1nc(C)c2ncnc(NCC(=O)N3CCOCC3)c21; -28.6%
O=C(c1cccnc1N1CCOCC1)N1CCCC1Cn1cccn1 (stereo not given); 3.81%
Cc1cc(C2CCCN(C(=O)c3cnn(C)c3)C2)ccn1 (stereo not given); 8.6%
CCc1nc2n(n1)CC(NCC(=O)Nc1nccs1)CC2 (stereo not given); 2.46%
CNC(=O)c1cccc(NC(=O)Cn2nc(-c3cccs3)oc2=O)c1; 6.93%
Cn1nc(C2CCCN(C(=O)Cc3ccsc3)C2)c2nccnc21 (stereo not given); -1.07%
COc1ccc2c(c1)CN(Cc1nc3c(cnn3C)c(=O)[nH]1)CC2; 4.43%
COc1ccc(-c2csc(N)c2C#N)cc1OC; 1.06%
CCOCCCC(=O)NCc1cn2cc(Br)ccc2n1; 6.38%

Problem: Which Percent Effect reading was recorded for the compound CCc1cnc2c(c1Nc1ccc(OC)cc1)c(=O)n(C)c(=O)n2C ?
Solution: 4.23%

Problem: Which Percent Effect reading was recorded for the compound COCCCn1ccnc1-c1cnc(OC)nc1 ?
Solution: 6.88%

Problem: Which Percent Effect reading was recorded for the compound CC1c2ncc(CN3CCN(C)CC3)n2CCN1Cc1cccnc1 (stereo not given) ?
Solution: 5.21%

Problem: Which Percent Effect reading was recorded for the compound CN1CCOC(CNCc2nc(-c3ccccc3)cs2)C1 (stereo not given) ?
Solution: 1.48%

Problem: Which Percent Effect reading was recorded for the compound Cc1noc(C(C)C)c1C(=O)NCc1cccc(N(C)C)c1 ?
Solution: 4.85%

Problem: Which Percent Effect reading was recorded for the compound COc1cccc(CNC(=O)C(c2cccc(F)c2)N2CCOCC2)c1 (stereo not given) ?
Solution: 6.38%

Problem: Which Percent Effect reading was recorded for the compound Cc1ccc(F)c(C(=O)N2CCN(S(C)(=O)=O)[C@@H](C)C2)c1 ?
Solution: -2.15%

Problem: Which Percent Effect reading was recorded for the compound CC(C)c1n[nH]c(C2CN(C(=O)CCn3ccccc3=O)CCO2)n1 (stereo not given) ?
Solution: 3.12%

Problem: Which Percent Effect reading was recorded for the compound Cn1cnnc1C1CCCN(C(=O)NCCc2ccccc2F)C1 (stereo not given) ?
Solution: 3.81%

Problem: Which Percent Effect reading was recorded for the compound O=C(CCNC(=O)c1ccoc1)Nc1c(F)cccc1F ?
Solution: 6.67%

Problem: Which Percent Effect reading was recorded for the compound COc1cc(N2C[C@@H]3COC[C@]3(COc3ccc(C#N)cn3)C2)ncn1 ?
Solution: 4.32%

Problem: Which Percent Effect reading was recorded for the compound CCCN(Cc1ccccc1)Cn1nc(C)c2c(C)onc2c1=O ?
Solution: 5.42%

Problem: Which Percent Effect reading was recorded for the compound COCC(=O)N1CCC(c2nc3ccc(-c4ccccc4)cn3n2)CC1 ?
Solution: 0%

Problem: Which Percent Effect reading was recorded for the compound Cn1nc(C2CCCN(Cc3ccsc3)C2)c2nccnc21 (stereo not given) ?
Solution: 1.07%

Problem: Which Percent Effect reading was recorded for the compound CC(=O)N1CCn2cc(CNC(=O)c3cccn3C)nc2C1 ?
Solution: 3.19%

###

ASSAY_TARGET: Proteasome subunit beta (Trypanosoma cruzi) (UniProt O96673)
Sequence (O96673 as listed by the source): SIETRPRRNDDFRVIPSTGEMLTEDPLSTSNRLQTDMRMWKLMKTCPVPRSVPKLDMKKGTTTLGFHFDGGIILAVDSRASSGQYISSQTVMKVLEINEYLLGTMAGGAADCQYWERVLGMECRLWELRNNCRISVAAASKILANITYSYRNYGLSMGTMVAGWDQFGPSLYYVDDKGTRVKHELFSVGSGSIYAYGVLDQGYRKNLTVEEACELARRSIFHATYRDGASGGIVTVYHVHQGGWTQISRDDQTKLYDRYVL
TEST_METHOD_NOTES: Trypanosoma cruzi proteasome chymotrypsin-like activity (TcProtChymo) assay. Also: in the data most compounds retested in dose-response had high values.
Type: functional
Design: scale not given: direction of the effect not stated beside the values
REPORTED_CONDITIONS: 9.37 µM
Entries and their Percent Effect
The reply should be a number in %, with the unit left off.

// below: answered compounds
CC(C)OCc1ncn2c1CN(Cc1cccs1)CCC2; 9.04
COc1ccc(CN(C)Cc2nc3c(cnn3C)c(=O)[nH]2)cc1OC; 16.5
Cc1[nH]ccc1C(=O)N1CCC(c2nnc(Cn3ccnc3)n2C)CC1; 15.3
c1cnnc(N2CCCC2CNc2ncnc3c2CCC3)c1 (stereo unspecified); 1.54
Cn1cc(CN2CCCn3cnc(COCC4CC4)c3C2)cn1; 7.69

Then this compound:
Problem: Which Percent Effect reading was recorded for the compound CN(C)C(=O)CN1C[C@@H]2CC[C@H](C1)N(Cc1cc(F)ccc1F)C2 ?
Solution: 20.6
